The reported measurements were obtained from the supplement of paper PMC10567573.

B1: HDAC6 (parent)
chain: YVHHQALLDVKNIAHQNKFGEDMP

variants of: B1; assay: protein stability index of a GFP-peptide fusion (GPS, HEK-293T) (PSI 1-6); higher = more stable; conditions: c terminus: a fixed tail appended;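 further: lentivirally expressed fusions sorted by FACS into six bins by GFP to DsRed ratio, PSI derived from sequencing read proportions per bin multiplied by bin number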
observedProperty: protein stability index
Please give the numeric answer without any surrounding text.

Known protein stability index results, listed for orientation:
# sequenceCode, measuredNumber
data = [
    ("YVHHQAHLDVKNIAHQNKFGEDMP [L7H]", 2.25),
    ("YVHHQALLDVKNIAHQNKEGEDMP [F19E]", 2.45),
    ("MVHHQALLDVKNIAHQNKFGEDMP [Y1M]", 3.49),
    ("YVHHQALLDVKNIAHQNKFGEDVP [M23V]", 1.74),
]

Item under review: YVHHQALLDVKNIAHQNKFGYDMP [E21Y] . Reported protein stability index?
2.15

What about YVHHQALLDVKNIAHQNKIGEDMP [F19I] ?
1.76

Same for YVHHQALLWVKNIAHQNKFGEDMP [D9W]
3.58

Try this variant next: YVHHQALLEVKNIAHQNKFGEDMP [D9E]
2.4

Check YVHHQALLDVKNIAHPNKFGEDMP [Q16P] too.
2.3

One more variant: YVQHQALLDVKNIAHQNKFGEDMP [H3Q]
1.78

Ok, now YVHHQALLDVKNIAHQNKFGEDDP [M23D]
2.17
